Kindly supply the reported abundance fitness values for the records listed here.
B1: COUP transcription factor 1, residues 83 to 159; numbered along this chain, P10589 (parent)
chain: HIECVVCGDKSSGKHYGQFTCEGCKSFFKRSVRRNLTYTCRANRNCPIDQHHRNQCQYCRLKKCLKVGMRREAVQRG

Variants of: B1
measurement-protocol: abundance fitness (aPCA) (normalised: wild type 0, dead -1); higher = more abundant; growth selection in yeast, the domain comes from the species named
assay-conditions: Homo sapiens
A bare number is all that is needed in reply.

Item HIECVVCGDKSSGKHYGQFTCEGCKSFFKRSVRMNLTYTCRANRNCPIDQHHRNQCQYCRLKKCLKVGMRREAVQRG has what recorded abundance fitness? -0.002

Any idea what abundance fitness was measured for HIECVVCGDKSSGKHYGQFTCEGCKSFFKRSVRRNQTYTCRANRNCPIDQHHRNQCQYCRLKKCLKVGMRREAVQRG ? -0.113

I would be grateful if you could share the reported abundance fitness for HIECVVCGDKSSGKHYGQFTCEGCKSFFKRSVRRNLTYTCRANRNCPIDQHFRNQCQYCRLKKCLKVGMRREAVQRG . -0.068

Consider the variant shown here: HIECVVCGDKSSGKHYGQFTCEGCKSFFKRSVRRNLTYTCRANRNCPIDQHHRNQCQYCRVKKCLKVGMRREAVQRG What is its recorded abundance fitness? -0.555

What value of abundance fitness has been recorded for this entry: HIECVVCGDKSSGKHYGQFTCEGCKSFFKRSVRRNLTYTCRANRNCPIDQHHRNQCQYCRLKKCLKGGMRREAVQRG -0.26

# get_value(readout='abundance fitness', item= HIECVVCGDKSSGKHYGQFTCEGCKSFFKRSVRRNLTYTCRANRNCPIDQHHRNQCQYCRLKNCLKVGMRREAVQRG ) -0.626
